Target: RELARELA (p65 homodimer) (Homo sapiens, UniProt Q04206 1-307)
Sequence (Q04206 1-307): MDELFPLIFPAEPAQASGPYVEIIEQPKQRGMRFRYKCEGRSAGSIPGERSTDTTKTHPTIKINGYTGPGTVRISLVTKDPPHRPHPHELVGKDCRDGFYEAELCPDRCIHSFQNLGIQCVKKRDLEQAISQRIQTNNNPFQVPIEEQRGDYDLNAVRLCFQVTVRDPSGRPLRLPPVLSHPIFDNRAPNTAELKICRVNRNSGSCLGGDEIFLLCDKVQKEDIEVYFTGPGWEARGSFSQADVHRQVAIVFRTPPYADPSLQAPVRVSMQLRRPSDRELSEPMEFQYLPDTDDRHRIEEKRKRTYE
Assay: protein binding microarray; high values mean tight binding
Settings: dsDNA, one strand shown
In this section, each of the sequences is paired with its reported binding signal.

{"Sequence Input": "CAGTGTTTCCT", "Unit Name": "z-score", "binding signal": 0.51}
{"Sequence Input": "CGGATCTTCCT", "Unit Name": "z-score", "binding signal": 0.45}
{"Sequence Input": "GGGAACCCCCC", "Unit Name": "z-score", "binding signal": 2.47}
{"Sequence Input": "AGGTTCGCCCT", "Unit Name": "z-score", "binding signal": -0.645}
{"Sequence Input": "AAATAGATCCC", "Unit Name": "z-score", "binding signal": -0.751}
{"Sequence Input": "GGAGTCGTCCT", "Unit Name": "z-score", "binding signal": -0.136}
{"Sequence Input": "GGGGTACTCCT", "Unit Name": "z-score", "binding signal": 0.917}
{"Sequence Input": "AAGTGATTCCT", "Unit Name": "z-score", "binding signal": -0.0511}
{"Sequence Input": "AGGATCACCCT", "Unit Name": "z-score", "binding signal": -0.477}
{"Sequence Input": "CAAGGTATCCC", "Unit Name": "z-score", "binding signal": -0.591}
{"Sequence Input": "GAAGACCTCCT", "Unit Name": "z-score", "binding signal": -0.649}
{"Sequence Input": "GGAATGCCCCC", "Unit Name": "z-score", "binding signal": 2.8}
{"Sequence Input": "CGGTTTTTCCC", "Unit Name": "z-score", "binding signal": 3.71}
{"Sequence Input": "CAATATACCCC", "Unit Name": "z-score", "binding signal": -0.012}
{"Sequence Input": "GAAGGTGCCCT", "Unit Name": "z-score", "binding signal": -0.528}
{"Sequence Input": "GGAGGATCCCC", "Unit Name": "z-score", "binding signal": 0.374}
{"Sequence Input": "AGAGACCTCCC", "Unit Name": "z-score", "binding signal": -0.639}
{"Sequence Input": "CAAGACCTCCC", "Unit Name": "z-score", "binding signal": -0.906}
{"Sequence Input": "CGGTAGCCCCT", "Unit Name": "z-score", "binding signal": 0.0258}
{"Sequence Input": "CGGATTGCCCC", "Unit Name": "z-score", "binding signal": 2}

###

Below is a list of entries, each paired with its recorded binding signal value.
Biological target: RELA (p65) subunit of heterodimer;p50 subunit (Homo sapiens;Homo sapiens, UniProt Q04206;P19838 1-307;7-356)
Sequence (Q04206 1-307, chain 1 of 2): as the sequence (Q04206 1-307) above
Sequence (P19838 7-356, chain 2 of 2): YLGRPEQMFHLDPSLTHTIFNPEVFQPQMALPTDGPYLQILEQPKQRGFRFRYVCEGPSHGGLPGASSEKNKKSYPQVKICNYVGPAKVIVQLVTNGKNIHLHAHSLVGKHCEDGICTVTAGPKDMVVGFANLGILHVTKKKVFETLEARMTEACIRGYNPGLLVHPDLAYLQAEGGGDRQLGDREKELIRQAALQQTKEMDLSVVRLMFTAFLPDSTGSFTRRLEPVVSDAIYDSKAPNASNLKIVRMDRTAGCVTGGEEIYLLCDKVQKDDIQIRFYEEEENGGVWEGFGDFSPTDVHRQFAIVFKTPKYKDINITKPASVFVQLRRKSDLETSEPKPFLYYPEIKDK
Experiment: protein binding microarray; high values mean tight binding
Details: dsDNA, one strand shown

{"Sequence Input": "AAGTAGTCCCC", "binding signal": "1.09 z-score"}
{"Sequence Input": "AGATGAATCCT", "binding signal": "-1 z-score"}
{"Sequence Input": "CAGGAAACCCC", "binding signal": "1.38 z-score"}
{"Sequence Input": "CGAAGGACCCT", "binding signal": "-0.948 z-score"}
{"Sequence Input": "GAGTTGGCCCT", "binding signal": "-0.546 z-score"}
{"Sequence Input": "GAGTGCGTCCT", "binding signal": "-0.981 z-score"}
{"Sequence Input": "GGAAATTTCCT", "binding signal": "1.83 z-score"}
{"Sequence Input": "GGAGATATCCT", "binding signal": "-0.874 z-score"}
{"Sequence Input": "AAGGTACTCCC", "binding signal": "0.376 z-score"}
{"Sequence Input": "AAGGGTTTCCC", "binding signal": "1.15 z-score"}
{"Sequence Input": "CAGTAGCTCCT", "binding signal": "-1.09 z-score"}
{"Sequence Input": "CGAAGCGCCCC", "binding signal": "-0.171 z-score"}
{"Sequence Input": "GAAAACGTCCT", "binding signal": "-0.838 z-score"}
{"Sequence Input": "CAAAAGACCCT", "binding signal": "0 z-score"}
{"Sequence Input": "AGGTGTGCCCT", "binding signal": "-0.712 z-score"}
{"Sequence Input": "GAGTGGATCCT", "binding signal": "-0.846 z-score"}
{"Sequence Input": "AAGAGCATCCT", "binding signal": "-1.09 z-score"}
{"Sequence Input": "GGAGGAGTCCC", "binding signal": "0.889 z-score"}
{"Sequence Input": "AAAGGGATCCC", "binding signal": "-0.128 z-score"}
{"Sequence Input": "CAGTGAGTCCC", "binding signal": "0.411 z-score"}

The measurements presented in this section are drawn from paper PMC3218832.
